# tgt: BACE1 (Homo sapiens)
# Construct: Human HEK293 cells which are stably transfected with a vector expressing a cDNA of the human APP wt gene (APP695); endogenous in cells; host or cells: HEK293 cells stably expressing human APP695 wt
# Sequence (P56817 46-501): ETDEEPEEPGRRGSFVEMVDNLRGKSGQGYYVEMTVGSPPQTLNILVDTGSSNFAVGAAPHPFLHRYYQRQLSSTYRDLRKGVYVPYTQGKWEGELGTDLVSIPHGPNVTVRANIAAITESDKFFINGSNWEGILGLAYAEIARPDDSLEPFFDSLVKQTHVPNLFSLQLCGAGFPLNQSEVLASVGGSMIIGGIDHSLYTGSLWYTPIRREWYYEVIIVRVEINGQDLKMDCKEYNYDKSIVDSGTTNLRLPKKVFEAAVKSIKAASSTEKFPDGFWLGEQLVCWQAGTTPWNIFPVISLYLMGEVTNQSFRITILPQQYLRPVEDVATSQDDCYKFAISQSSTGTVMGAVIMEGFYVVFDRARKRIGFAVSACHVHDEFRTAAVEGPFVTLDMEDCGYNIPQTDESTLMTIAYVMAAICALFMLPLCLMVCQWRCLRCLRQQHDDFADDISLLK
# procedure-summary: Cellular Aβ-lowering assay b) (Abeta 40 AlphaLISA, HEK293 APP cells)
# Assay type: cell-based
# condition-summary: 18-20 hrs incubation, read-out: BACE1 cell act. Aβ40 IC50
Where a name gives a salt, the structure may show the parent alone.
measure-name: pIC50
// field semantics: pIC50 = negative decimal log of concentration (mol/L)

Lookup: Entry CC1(C)OC(N)=N[C@](C)(c2cc(NC3CCC(c4ccccc4)C3)ccc2F)C1(F)F (mixture of isomers) [Example 49] , system BACE1 (Homo sapiens): what pIC50 was measured?
Found: 5.92

Lookup: Entry C[C@]1(c2cc(NCc3cc(F)cc(F)c3)ccc2F)N=C(N)OC[C@@H]1F [Example 56] , system BACE1 (Homo sapiens): what pIC50 was measured?
Found: 6.10

Lookup: Entry C[C@]1(c2cnn(-c3cccc(C#N)c3)c2)N=C(N)OCC1(F)F [Example 60] , system BACE1 (Homo sapiens): what pIC50 was measured?
Found: 5.34

Lookup: Entry C[C@]1(c2cc(-c3nc4ccc(Cl)cc4o3)c(F)cc2F)N=C(N)OCC1(F)F [Example 15, Hydrochloride] , system BACE1 (Homo sapiens): what pIC50 was measured?
Found: 5.89

Lookup: Entry CCc1ccc(Cc2nc3ccc([C@@]4(C)N=C(N)OCC4(F)F)cc3[nH]2)cc1 [Example 55] , system BACE1 (Homo sapiens): what pIC50 was measured?
Found: 5.84

Lookup: Entry C[C@]1([C@@H]2C[C@H]2C(=O)Nc2csc3cc(C#N)cnc23)N=C(N)OCC1(F)F [Example 65] , system BACE1 (Homo sapiens): what pIC50 was measured?
Found: 6.74

Lookup: Entry C[C@]1(c2cnn(-c3cccc(Br)c3)c2)N=C(N)OCC1(F)F [Intermediate K7.1] , system BACE1 (Homo sapiens): what pIC50 was measured?
Found: 5.84

Lookup: Entry C#Cc1cccc(-n2cc([C@@]3(C)N=C(N)OCC3(F)F)cn2)c1 [Example 61] , system BACE1 (Homo sapiens): what pIC50 was measured?
Found: 6.14
